- assay system: T1, human apelin receptor (human, UniProt P35414 1-380)
- T1 construct: whole, on cells; also called AGTRL1; APJ
- T1 sequence (looked up): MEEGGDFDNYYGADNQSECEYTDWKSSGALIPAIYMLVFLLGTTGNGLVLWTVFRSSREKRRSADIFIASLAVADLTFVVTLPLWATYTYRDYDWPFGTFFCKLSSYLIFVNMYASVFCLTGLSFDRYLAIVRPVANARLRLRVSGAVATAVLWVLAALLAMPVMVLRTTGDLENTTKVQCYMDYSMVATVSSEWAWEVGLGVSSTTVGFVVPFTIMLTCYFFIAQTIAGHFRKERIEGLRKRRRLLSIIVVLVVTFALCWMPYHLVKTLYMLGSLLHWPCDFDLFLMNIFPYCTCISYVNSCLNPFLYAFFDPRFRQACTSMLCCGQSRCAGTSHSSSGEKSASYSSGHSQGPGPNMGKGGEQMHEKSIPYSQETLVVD
- assay remarks: binding to human left ventricle
Positions of bridges follow the written chain, without caps; N, C: chain ends. No end group written: not given here.
measurement label: Kd (µM)
Respond numerically; units are µM and should not be typed.

GET /value?item= CRPRLCKHCRPRLC (disulfide 1-6, 9-14, Previously published macrocyclic comparator; also called cyclo(1-6)CRPRLC-KH-cyclo(9-14)CRPRLC) [MM54] &field=Kd returns 0.358

Hello, the source for this data is patent US20240279280A1, in case you need it.
